Experimental Protocol: soluble fraction after stress (log2 fold change); higher = more stays soluble; pooled small domains, quantitative proteomics;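 note: 20 min heating vs room temperature control held 20 min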
Condition Context: stress: 75 degC
Param threshold (-0.2) applies to soluble fraction (log2); output criterion met when value >= threshold, criterion not met when value < threshold.

Example cases with answers are listed next.
[
  {
    "Primary Sequence": "HMGVQKGKDNALAVQQWIAERDATGDFGEYERRGIINRSALFDELGIPRSSMGSNDQIRQMIEAADVRWF",
    "Group Label": "criterion not met"
  },
  {
    "Primary Sequence": "HMSATIMVLRASEDIPVGTEIKDNHLTTVEVGSYGLPEGAINDKDTVLGKVAQTNIIKGDYFFPQKLGG",
    "Group Label": "criterion met"
  },
  {
    "Primary Sequence": "HMALPQPDDDRQDTKKRILDMAEDLLLTRGFNAFSYQHISSELGMKNAAIHYHYPKKNDLGVAVIQRYRRR",
    "Group Label": "criterion met"
  },
  {
    "Primary Sequence": "HMIEQEQAFLEQVLKKYSQEELVLTVGSRTLVKYSAGQLERLLEHYPHVRLASSPVNGEAGFLLSRG",
    "Group Label": "criterion met"
  },
  {
    "Primary Sequence": "HMPDAENFRYRVPYTTEQNRLQYYEGDIRAENADKARDQVMQDAQKYFAQNTAFTPNYIDTDIISLD",
    "Group Label": "criterion met"
  }
]

// query Is soluble fraction (log2) for HMVDETDVPTFTDMTLEEAQNEAKQRNLKLEITESPSDKEKDTILEQDPEPGKTVASGSTVKLTVSNGEE at or above -0.2?
// result criterion met

// query Quick check, soluble fraction (log2) >= -0.2? HMLILDTDGRYVIKRGDSLSEILEKIANGSNINLNLLKRAFVTANPKAFKRANPNWMYANAR
// result criterion not met

// query In plain terms: is recorded soluble fraction (log2) at least -0.2 for HMEDNYYENKINYLFGYLDEADKEISVNSILDFHLAHRTNPEFVFEPKKNTNPLIWKYLSNSNLLY ?
// result criterion met

----------
Experimental Protocol: soluble fraction after stress (log2 fold change); higher = more stays soluble; pooled small domains, quantitative proteomics
Condition Context: stress: 75 degC
Readout Type: soluble fraction (log2)
No unit in the answer, please; the number alone is enough.

Solved entries (count: 8):
[
  {
    "Primary Sequence": "HMISDEELLVSTKKEIMSLATVLTKTDKKDDAIAIMKEYDPAANPNRIKDVNKAKELLERLQKLG",
    "Readout Type": "soluble fraction (log2)",
    "Readout Number": -0.225
  },
  {
    "Primary Sequence": "HMSRPLISNMLRLLNLPPTVQRKVAAGVISAGHARALLGLNDEKEIEKLANRIVAEGLSVRATEEIVAIA",
    "Readout Type": "soluble fraction (log2)",
    "Readout Number": -1.62
  },
  {
    "Primary Sequence": "HMELNGVSETAKSVYSIILNNSSTVDDIVIKTKLPAAKVMQALTELELNDAVERKSGGVYALP",
    "Readout Type": "soluble fraction (log2)",
    "Readout Number": 0.0577
  },
  {
    "Primary Sequence": "HMGHYGQMTRDLIEKAKTYEEGEEKAALVLTIANLMKRHYLTWNRATVENTLIAEQLKEMSEGALTLPEDV",
    "Readout Type": "soluble fraction (log2)",
    "Readout Number": -0.956
  },
  {
    "Primary Sequence": "HMVMNYKKIGKKIADRRILLGITQEELAEKVDSSANYISNIETGIKSGSLIFYIKVANELKLSLDFLFSDE",
    "Readout Type": "soluble fraction (log2)",
    "Readout Number": -3.09
  },
  {
    "Primary Sequence": "HMEFQSIGGKIRIGREREHLTQAELAQKLSVTRQAVSNWERDKTLPDIYMIREIAEIFGLTLDEFMEGAKK",
    "Readout Type": "soluble fraction (log2)",
    "Readout Number": -1.02
  },
  {
    "Primary Sequence": "HMDLPAEFSKPELETLFKRGKQSGELSLTEVRDALEAAQLPNKKTQTKVLKVLSDNAIHVLMDG",
    "Readout Type": "soluble fraction (log2)",
    "Readout Number": 0.0744
  },
  {
    "Primary Sequence": "HMSGSILVQVSATDLNIRKGPGTNYGTTGKYTGKGTFTIVETRSGQGSNAGWGKLKSGAGWISLDYAKR",
    "Readout Type": "soluble fraction (log2)",
    "Readout Number": -1.54
  }
]

// query Suppose we examine the sequence HMPMNISDIIKQAREELGMTQEDLAERLEVSRQAVSKWELGASVPSPENLRLLEELLGVELPAP ; what soluble fraction (log2) value has been reported?
// result -0.198

// query Query (sequence): HMIKSMTGYGSAKGTVEGIEVSVELKSVNNKFLDTSIRLPRSFLFAEETIKQAVSSHISRGKVDVFVSVDS ; field requested: soluble fraction (log2)
// result 0.587

// query State the recorded soluble fraction (log2) for this entry: HMSVKTIRKTEFAKRLYSLMLEKNWNQSDLARASGMGRDSVSQYIRANNTPSPQNLKKLAEALGVEPVELY
// result -2.05

// query Recorded soluble fraction (log2) of HMGAAVEVISLRYRSAAELLPIVRSLLSTEGKISADERTNSLIIVDSDEAVARVIHSLATLDT , please.
// result -1.3

// query Fill blank: measured soluble fraction (log2) of the sequence HMTITDDETHKVLEEGASRMSEGLTFRDLVDLDRLHLTARGVIQKVLNENRIDADVDTIANMAQKLVARVS is ____.
// result -0.0881

// query // returns reported soluble fraction (log2) for input HMGWVMLVIMSRGASEAQINAVVEKIRAAGLTEHLSKGIERTIIGAIGEERKLEPEVFELLPGVEQALHIV
// result -2.2

// query Item under review: HMSPREDQQSRKQHILEAAAVLFAERGYYKTTTADVARAVGVTQPYVFHFFKSKEELYLAVL . Reported soluble fraction (log2)?
// result 0.163

// query I'd like to know its soluble fraction (log2). The sequence in question is HMRAAKSEDTRTRLIEGGMALFGQKGYNATGIKDITDAAGVPKGSFYNYFASKEDFGAEIIHSY
// result 0.14

// query Record request: soluble fraction (log2) value, item HMSEFVIPLAKYNKALYTQVSLGMRFRMLFETEDSGVRRYMGTITGIGDLDPIRWKNSHWRNLQV
// result 0.191

// query GET /values?readout=soluble fraction (log2)&item= HMSKPLEVFKLTSEPFGFSFNTALGRSYTVEATGDLGVWKAVELFQGSGGEIRFTAKPTSSGGAQFFRVFV
// result 0.0649

// query Please look up its soluble fraction (log2): HMEDGEALARAVASLPGKYREVLFLKYSHGYSVDEIALILSMSKENVKKTIQRARKKLEQLLESE
// result -1.3

----------
Experimental Protocol: soluble fraction after stress (log2 fold change); higher = more stays soluble; pooled small domains, quantitative proteomics
Condition Context: stress: 75 degC
Readout Type: soluble fraction (log2)

Below are worked cases with known answers.
[
  {
    "Primary Sequence": "HMDDIHTFVYETETPFDPQKLDRYIGSLTAVYGQDMLRYKGILYFAGVDRRVVFQGVHMLAV",
    "Result": -0.0939
  },
  {
    "Primary Sequence": "HMINGTITFYDDTTLKGELSSLDTKYLFIIPNGLVMPEKIAVSDIEYFNLDNGITLIQDGISKQTY",
    "Result": -1.09
  },
  {
    "Primary Sequence": "HMVTIEEMMDRLLTRVQRAVNMSFSEFSGEAKEKVEVIVSFLALLELVKQGAVDVLQHENFSDIRIENT",
    "Result": -0.661
  }
]

Next up:
// query Suppose we examine the sequence HMKPVTNHTVKFYVDDVLWKTVTVKHGGNVRLADLPMSDGKTFVGWSESVVNVTKDLTVFALFS ; what soluble fraction (log2) value has been reported?
// result -1.96

----------
Experimental Protocol: soluble fraction after stress (log2 fold change); higher = more stays soluble; pooled small domains, quantitative proteomics
Condition Context: stress: 75 degC
Readout Type: soluble fraction (log2)
Kindly provide the number alone.

// worked examples, soluble fraction (log2) included
[
  {
    "Primary Sequence": "HMTSLYDILGIAKTADSQTIKTAFKKKALLYHPDKNNGNLKKEEIFKKISTAYQILSDPKSRANYDLSIA",
    "soluble fraction (log2)": -0.272
  },
  {
    "Primary Sequence": "HMTRIHEEVVNQVHDLVKEGRFKAGDQLPSERELAEIFKVSRTSVREALRALETQGLIISRTGMGNFIAD",
    "soluble fraction (log2)": -0.249
  },
  {
    "Primary Sequence": "HMEPDTVVVPNFVGKVYASEIEGNEAYSDFTFVIKEGNDPEQDIGVVLKQTPNEGLEVKKGKEITLTINQ",
    "soluble fraction (log2)": 0.031
  },
  {
    "Primary Sequence": "HMYKIDFAEGDRVIIKGGAFSGLRATVVSLHPEKGMAKIKVYMFGDRETLVDIEVSQLEKDK",
    "soluble fraction (log2)": -0.785
  },
  {
    "Primary Sequence": "HMSKPVYILINKPKGFLASSTDKKVKKSVNDLINISNLNKIYPFDNMGRTSSGLLLLSNDLYFKKHFKDKI",
    "soluble fraction (log2)": 0.451
  },
  {
    "Primary Sequence": "HMDIFGREAEVEQILQEVRFGDDPHYRLSIGILPVTGHAGAGKTALVRFIFHHEVARAEFTVRMWVHV",
    "soluble fraction (log2)": 0.154
  }
]

Query sequence follows.
// query Fill blank: measured soluble fraction (log2) of the sequence HMEALNIEQKKVEIINVLLEKGKGKGRLSYKEISDQIDTVELDKDQMDELYETLMTNGIEIV is ____.
// result 0.00136

Every entry's value here was drawn from the domain aggregation screens of Martell et al. (2025).
